# IC50 per entry
System: PC3 (prostate cancer) cells
Assay: SRB cytotoxicity assay, PC3
Format: cell-based
Details: Homo sapiens; SRB assay, 48 h culture, mean ± SD, at least three independent experiments; compounds marked * : low solubility, real values might be lower; read-out: Cytotoxicity IC50, PC3

Below: 6 molecules and their reported IC50.
[
  {
    "molecule smiles": "COc1ccc(/C(=C\\c2cc(OC)c(OC)c(OC)c2)C(=O)NCc2ccc(Cl)cc2)cc1Br",
    "IC50": "> 100 µM"
  },
  {
    "molecule smiles": "CCCCN(CCCC)C(=O)/C(=C/c1cc(OC)c(OC)c(OC)c1)c1ccc(OC)c(Br)c1",
    "IC50": "23.7 µM"
  },
  {
    "molecule smiles": "C#CCOC(=O)/C(=C/c1cc(OC)c(OC)c(OC)c1)c1ccc(OC)c(Br)c1",
    "IC50": "> 100 µM"
  },
  {
    "molecule smiles": "COc1ccc(/C(=C\\c2cc(OC)c(OC)c(OC)c2)C(=O)NCc2ccccc2[N+](=O)[O-])cc1Br",
    "IC50": "> 100 µM"
  },
  {
    "molecule smiles": "CNC(=O)/C(=C/c1cc(OC)c(OC)c(OC)c1)c1ccc(OC)c(Br)c1",
    "IC50": "44.9 µM"
  },
  {
    "molecule smiles": "COc1ccc(/C(=C\\c2cc(OC)c(OC)c(OC)c2)C(=O)Nc2ccccc2)cc1Br",
    "IC50": "> 100 µM"
  }
]

The observed IC50 for COc1ccc(/C(=C\c2cc(OC)c(OC)c(OC)c2)C(=O)O)cc1Br when tested with PC3 (prostate cancer) cells stands at > 100 µM

Entry CCCN(CCC)C(=O)/C(=C/c1cc(OC)c(OC)c(OC)c1)c1ccc(OC)c(Br)c1 , PC3 (prostate cancer) cells data, IC50 value: > 100 µM

---

Test: SRB cytotoxicity assay, HaCaT
Assay type: cell-based
Details: human, HaCaT immortalized keratinocyte cells (non-tumor cell line), 48 h culture, mean ± SD, at least three independent experiments, compounds marked * : low solubility, real values might be lower
readout label: IC50 at 48 h

Use the examples below as a reference point.
[
  {
    "compound": "COc1ccc(/C(=C\\c2cc(OC)c(OC)c(OC)c2)C(=O)NCc2ccccc2Cl)cc1Br [Compound 16]",
    "IC50 at 48 h": "> 100 µM"
  },
  {
    "compound": "COc1ccc(/C(=C\\c2cc(OC)c(OC)c(OC)c2)C(=O)N(Cc2ccccc2)Cc2ccccc2)cc1Br [Compound 22]",
    "IC50 at 48 h": "> 100 µM"
  }
]

# IC50 at 48 h (compound: CCOC(=O)/C(=C/c1cc(OC)c(OC)c(OC)c1)c1ccc(OC)c(Br)c1 [Compound 5] ) is 45 µM

For COC(=O)/C(=C/c1cc(OC)c(OC)c(OC)c1)c1ccc(OC)c(Br)c1 [Compound 4] the compound record lists IC50 at 48 h as 68.3 µM

compound COc1ccc(/C(=C\c2cc(OC)c(OC)c(OC)c2)C(=O)Nc2ccccc2)cc1Br [Compound 14] , IC50 at 48 h observed: > 100 µM

Lab note: COc1ccc(/C(=C\c2cc(OC)c(OC)c(OC)c2)C(=O)NCc2cccc(Cl)c2)cc1Br [Compound 17] gave IC50 at 48 h of > 100 µM

The compound listed as COc1ccc(/C(=C\c2cc(OC)c(OC)c(OC)c2)C(=O)OCc2ccccc2)cc1Br [Compound 7] shows IC50 at 48 h equal to > 100 µM

// field: IC50 at 48 h; key: COc1ccc(/C(=C\c2cc(OC)c(OC)c(OC)c2)C(=O)NCc2ccccc2[N+](=O)[O-])cc1Br [Compound 15] ; value = > 100 µM

Record COc1ccc(/C(=C\c2cc(OC)c(OC)c(OC)c2)C(=O)NCc2ccc(Cl)cc2)cc1Br [Compound 18] . Reported IC50 at 48 h: > 100 µM

// IC50 at 48 h value for CCCCN(CCCC)C(=O)/C(=C/c1cc(OC)c(OC)c(OC)c1)c1ccc(OC)c(Br)c1 [Compound 20] : 20.5 µM

Kindly note the recorded IC50 at 48 h for COc1ccc(/C(=C\c2cc(OC)c(OC)c(OC)c2)C(=O)OCCCCBr)cc1Br [Compound 8] , which is 23.9 µM

Notebook: CCCCNC(=O)/C(=C/c1cc(OC)c(OC)c(OC)c1)c1ccc(OC)c(Br)c1 [Compound 11] , IC50 at 48 h read as 58.6 µM

For record C#CCOC(=O)/C(=C/c1cc(OC)c(OC)c(OC)c1)c1ccc(OC)c(Br)c1 [Compound 6] the listed IC50 at 48 h is > 100 µM
